system: LCK; conditions: concentration: 1 μM, replicates: in singlicate; n = 1;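 note: KINOMEscan kinase panel screen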
readout kind: %Inh (%)
Give a bare numeral; the unit % is implied.

1. C[C@@H]1CC[C@@H](C(=O)Nc2ccccc2)CN1c1cc(-c2ccc3c(N)n[nH]c3c2)nc(N)n1 | 2
2. COc1ccc(CNC(=O)NC2CCN(c3ccnc(Nc4ccc(F)cc4)n3)CC2)cc1 | 8

Challenge: Quick one: %Inh for O=C(Nc1cccc(-c2nn3ccccc3c2-c2ccnc(Nc3cccc(C(F)(F)F)c3)n2)c1)c1c(F)cccc1F ?
Response given: 95.2

Challenge: Would you kindly share the measured %Inh for CCCCc1nn2ncccc2c1-c1ccnc(Nc2ccc(N3CCN(C)CC3)cc2)n1 ?
Response given: 99.1

Challenge: Could you share which %Inh value was measured for Cc1cccc(Nc2nc(N[C@H]3CCNC3)ncc2C(N)=O)c1.Cl ?
Response given: 40

Challenge: Which value of %Inh has been reported for Nc1ncc(-c2cccnc2)c2scc(-c3ccc4c(c3)CCN4C(=O)Cc3ccccc3)c12 in the records?
Response given: 70

Challenge: What does the data say about its %Inh? Entry: O=C(O)C(F)(F)F.O=C(O)C(F)(F)F.O=c1[nH]ccc2nc(N[C@@H]3CCCNC3)nc(Nc3ccc(S(=O)(=O)N4CCOCC4)cc3)c12
Response given: 78

Challenge: Which %Inh value is on record for O=C(Nc1cccc(Oc2ccc3nc(NC(=O)C4CC4)cn3n2)c1)c1ccccc1C(F)(F)F ?
Response given: 72
